Origin of measurements: PubChem BioAssay (NCATS)

- Experiment Summary: qHTS Screen of the MIPE 4.0 Collection Against Ewings Sarcoma (TC32) (AID 1259256); further: nearly all actives have a fitted effect of over 45% in size
- Condition Notes: TC32 Ewing sarcoma viability, CellTiter-Glo, 48 h; series mostly up to 45.8 µM
Results filed as inconclusive are left out. Calls of active or inactive are those of the source. The call rests on the fitted dose curve; in most records, active means well fitted inhibition curve with a large enough effect; inconclusive means small, poorly fitted or top-dose-only effect; inactive means no such curve, though single readings can be large or run the other way.
Parameter call: string, one of active, inactive

Hi, do you know how CN1CC(=O)NC1=NC(=O)Nc1cccc(Cl)c1 came out in this test?
inactive

Hi, do you know how Cc1cc(CS(=O)(=O)c2ccccc2)cc(OCc2ccc(CN3CCC[C@H]3CO)cc2)c1 came out in this test?
active

Hi, do you know how CCOc1ccccc1N=Nc1c(C)[nH]n(-c2nc(-c3ccccc3)cs2)c1=O came out in this test?
active

Hi, do you know how CO[C@H]1/C=C\O[C@@]2(C)Oc3c(C)c(O)c4c(O)c(c5c(nc6cc(C)ccn65)c4c3C2=O)NC(=O)C(C)=CC=C[C@H](C)[C@H](O)[C@@H](C)[C@@H](O)[C@@H](C)[C@H](OC(C)=O)[C@H]1C came out in this test?
inactive

Hi, do you know how C=C1[C@H](n2cnc3c(=O)[nH]c(N)nc32)C[C@H](O)[C@H]1CO came out in this test?
inactive

Hi, do you know how CN[C@@H]1[C@@H](O)[C@@H](O[C@@H]2[C@@H](O)[C@H](O[C@H]3O[C@H](CN)[C@@H](O)[C@H](O)[C@@H]3O)[C@@H](N)C[C@@H]2NC(=O)[C@@H](O)CN)OC[C@]1(C)O came out in this test?
inactive

Hi, do you know how O=C(O)C1=CO[C@@H](O[C@@H]2O[C@H](CO)[C@H](O)[C@H](O)[C@H]2O)[C@@H]2C(CO)=CC[C@H]12 came out in this test?
inactive

Hi, do you know how COc1c(C)c2c(c(O)c1CC=C(C)CCC(=O)OCCN1CCOCC1)C(=O)OC2 came out in this test?
active

Hi, do you know how CCC[C@H](Nc1nc(-c2ccc(NC(=O)NCC)c(OC)c2)ncc1C)c1cccnc1 came out in this test?
inactive

Hi, do you know how COc1ccc(CCC(=O)Nc2nc3ccc(Cl)cc3s2)cc1OC came out in this test?
active

Hi, do you know how Cc1ccc(S(=O)(=O)Nc2nc3ccccc3nc2Nc2ccc3nsnc3c2)cc1 came out in this test?
active

Hi, do you know how Cc1cc2c(cc1C1(c3ccc(C(=O)O)cn3)CC1)C(C)(C)CCC2(C)C came out in this test?
inactive

Hi, do you know how CC[C@H](C)n1cc(C)c2c(C(=O)NCc3c(C)cc(C)[nH]c3=O)cc(-c3ccc(N4CCNCC4)nc3)cc21 came out in this test?
active

Hi, do you know how CCCCC(C)(C)[C@H](O)C=C[C@H]1[C@H](O)CC(=O)[C@H]1CC=CCCCC(=O)O came out in this test?
active

Hi, do you know how CN(C)CCOc1ccc(-c2nc(-c3ccc4c(c3)CCC4=NO)c(-c3ccncc3)[nH]2)cc1 came out in this test?
active

Hi, do you know how CN(C)CCCNC(=O)c1ccc(-c2cc(O)c3ncccc3c2)cc1 came out in this test?
active

Hi, do you know how COc1ccc(-c2cc(=O)c3c(O)cc(O[C@@H]4O[C@H](CO[C@@H]5O[C@@H](C)[C@H](O)[C@@H](O)[C@@H]5O)[C@@H](O)[C@H](O)[C@@H]4O)cc3o2)cc1O came out in this test?
active

* * *

- Tested on: MKL-1
- Experiment Summary: qHTS assay to identify novel small-molecules to repurpose for Merkel cell carcinoma treatment (AID 1296009); further: nearly all actives have a fitted effect of over 60% in size
- Condition Notes: MCC and control cell lines, CellTiter-Glo viability, 72 h; series mostly up to 46 µM
Inconclusive results are not listed. Active and inactive are the calls of the source. Calls come from the whole dose curve; as a rule, active = well fitted inhibition curve with a large enough effect; inconclusive = small, poorly fitted or top-dose-only effect; inactive = flat fitted curve, though single readings scatter.
Parameter call: string, one of active, inactive

Hi, do you know how CN1C(=O)C(Cc2c[nH]c3ccccc23)NC1=S (stereo not given) came out in this test?
inactive

Hi, do you know how O=C(C=Cc1ccc(O)cc1)c1ccc(O)cc1O came out in this test?
inactive

Hi, do you know how CC[C@H](C)C(=O)O[C@H]1C[C@H](O)C=C2C=C[C@H](C)[C@H](CC[C@@H](O)C[C@@H](O)CC(=O)O)[C@H]21 came out in this test?
inactive

Hi, do you know how CN(C)N=Nc1nc[nH]c1C(N)=O came out in this test?
inactive

Hi, do you know how O=C(O)c1nc(=O)[nH]c(=O)[nH]1 came out in this test?
inactive

Hi, do you know how Nc1ccc(-c2ccc3ncc4ccc(=O)n(-c5cccc(C(F)(F)F)c5)c4c3c2)cn1 came out in this test?
active

Hi, do you know how CC(C)Oc1cc(Nc2nc(N[C@@H](C)c3ccc(F)cn3)ncc2Cl)[nH]n1 came out in this test?
inactive

Hi, do you know how C=CCc1cccc(C=NNC(=O)CN2CCN(Cc3ccccc3)CC2)c1O came out in this test?
active

Hi, do you know how CCOC(=O)[C@H](CCc1ccccc1)N[C@@H](C)C(=O)N1CCCC1C(=O)O (stereo not given in full) came out in this test?
inactive

Hi, do you know how OC[C@H]1O[C@@H](Oc2ccc(O)cc2)[C@H](O)[C@@H](O)[C@H]1O came out in this test?
inactive

* * *

- Experiment Summary: Identifying Small Molecule Inhibitors of Pancreatic Cancer Stem Cells (SN12C, Spheroid) (AID 1259360)
- Condition Notes: SN12C spheroid viability; series mostly up to 46.1 µM
Inconclusive results are not listed. Calls of active or inactive are those of the source. The call rests on the fitted dose curve; in most records, active means well fitted cell-killing curve with a large enough effect; inconclusive means small, poorly fitted or top-dose-only effect, or effect the other way; inactive means flat fitted curve, though single readings scatter.
Parameter call: string, one of y = active, n = inactive

Hi, do you know how Cn1cc(-c2ccc3nnc(Sc4ccc5ncccc5c4)n3n2)cn1 came out in this test?
n

Hi, do you know how CCCCOCCOc1nc(-c2ccc(C(=O)O)c(F)c2)sc1C came out in this test?
n

Hi, do you know how CNC(=O)c1cc(Oc2ccc(NC(=O)Nc3ccc(Cl)c(C(F)(F)F)c3)c(F)c2)ccn1 came out in this test?
y

Hi, do you know how NC(=O)c1ccc(N(C(N)=O)c2c(F)cccc2F)nc1-c1ccc(F)cc1F came out in this test?
n

Hi, do you know how CC(=O)NCCC(=O)N[C@@H](CCC(N)=O)C(=O)N[C@@H](CO)C(=O)N[C@@H](CCC(N)=O)C(=O)N[C@@H](CCC(N)=O)C(=O)N[C@H](C(=O)N[C@@H](Cc1ccccc1)C(=O)N[C@]1(C)CCCCCCC=CCCC[C@@](C)(C(=O)N[C@@H](CCC(N)=O)C(=O)N[C@@H](CC(N)=O)C(N)=O)NC(=O)[C@H](CC(C)C)NC(=O)[C@H](CC(C)C)NC(=O)[C@@H](CCCNC(=N)N)NC(=O)[C@H](Cc2c[nH]c3ccccc23)NC(=O)[C@H](CC(C)C)NC(=O)[C@H](CC(N)=O)NC1=O)[C@H](C)O came out in this test?
n

Hi, do you know how COc1c(C)cnc(Cn2cnc3c(Cl)nc(N)nc32)c1C came out in this test?
y

Hi, do you know how CCOC(=O)[C@@H](N)CCC(=O)N[C@@H](CSCc1ccccc1)C(=O)N[C@@H](C(=O)OCC)c1ccccc1 came out in this test?
n

Hi, do you know how CN(C)CCCNC(=O)c1ccc(-c2cc(O)c3ncccc3c2)cc1 came out in this test?
n

Hi, do you know how COc1ccc2c(c1)CC[C@H]1[C@@H]2CC[C@]2(C)[C@@H](NCCCCCCN3C(=O)C=CC3=O)CC[C@H]12 came out in this test?
y

* * *

Give z-score for every item shown.
- Experiment Summary: qHTS for identification of novel therapeutic agents for treatment of microphthalmiaassociated transcription factor (MiT) renal cell carcinoma (RCC) (AID 1963991);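 further: curves scaled with 100% = DMSO viability and 0% = empty wells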
- Condition Notes: TFE3-RCC viability, CellTiter-Glo, 48 h; measured here: UOK145 Z-AUC; stronger effect = lower value
Inconclusive results are not listed.
Just the number, please, no unit attached.

Any idea what its z-score is? The compound is N=C1SC(=Cc2ccc(-c3ccc4c(c3)C(=O)NC4=O)o2)C(=O)N1c1ccc(Br)cc1
0.868

Any idea what its z-score is? The compound is CC(C)C[C@@H](N)[C@H](O)C(=O)N[C@H](C(=O)N[C@H](C(=O)N[C@@H](CC(=O)O)C(=O)O)C(C)C)C(C)C
-0.2

Any idea what its z-score is? The compound is Nc1ccc(-c2ccc3ncc4ccc(=O)n(-c5cccc(C(F)(F)F)c5)c4c3c2)cn1
-4.33

Any idea what its z-score is? The compound is Cc1cc2c(cc1C1(c3ccc(C(=O)O)cn3)CC1)C(C)(C)CCC2(C)C
0.66

Any idea what its z-score is? The compound is N[C@@H](CC(=O)N1CCn2c(nnc2C(F)(F)F)C1)Cc1cc(F)c(F)cc1F
0.666

Any idea what its z-score is? The compound is CN(C)CCN(C)C(=O)c1ccc(NC(=O)Nc2ccc(-c3nc(N4CCOCC4)c4ccn(CC(F)(F)F)c4n3)cc2)cc1
-1.67

Any idea what its z-score is? The compound is C[C@]12CCC3=C4CCC(=O)C=C4CC[C@@H]3[C@H]1CC[C@@]2(O)CC#N
-0.023

Any idea what its z-score is? The compound is CC1(C)OC2CC3C4CC(F)C5=CC(=O)C=CC5(C)C4C(O)CC3(C)[C@]2(C(=O)CO)O1 (stereo partly drawn)
-1.73
